Answer each item with its documented SARS-CoV-2 infection rate.
- System: Vero E6 infected with SARS-CoV-2
- experiment: SARS-CoV-2 infection rate relative to infected DMSO; higher = more infection, active = 60 or less
- recorded-conditions: 24 h
Return type: number; implicit unit %.

Find the recorded SARS-CoV-2 infection rate belonging to Cc1ccc(S(=O)(=O)NC(=O)NN2CC3CCCC3C2)cc1 (stereo not drawn) [gliclazide] (10 µM) and report it.
106

And the next one, COC1CCN(c2cccc(-c3cc(NC(C)=O)nc(-n4nc(C)cc4C)n3)n2)CC1 (10 µM) ?
104

And the next one, CC(C)(C)NCC(O)c1cc(Cl)c(N)c(C(F)(F)F)c1 (stereo not drawn) [mabuterol] (10 µM) ?
107
